# PROCEDURE DETAILS: clinical
# RUN CONDITIONS: human, in vivo, inhaled or intranasal, 150 ug
*1 amine or outer side, *2 acyl side, *3 side chain or, on linkers, in order; H or OH if unused. Where a SMILES comes first, the peptide text is derived from it. Bridges are numbered along the chain shown (N, C = ends). X1 = O=C(CCC[*:2])[*:1]
PARAMETER: Tmax
Form field: result (number plus unit)

// fetch Tmax given entry CC[C@H](C)[C@@H]1NC(=O)[C@H](Cc2ccc(OC)cc2)NC(=O)CCCSC[C@@H](C(=O)N2CCC[C@H]2C(=O)N[C@@H](CC(C)C)C(=O)NCC(N)=O)NC(=O)[C@H](CC(N)=O)NC(=O)[C@H](CCC(N)=O)NC1=O [carbetocin] (Y(Me)IQNCPLG-NH2; linker N-5 via X1 (inferred))
15 min

----------
# PROCEDURE DETAILS: clinical
# RUN CONDITIONS: human, in vivo, 150 ug
*1 amine or outer side, *2 acyl side, *3 side chain or, on linkers, in order; H or OH if unused. Where a SMILES comes first, the peptide text is derived from it. Bridges are numbered along the chain shown (N, C = ends). X1 = O=C(CCC[*:2])[*:1]
PARAMETER: Cmax (ng/mL)
Dear colleague, please return just the value in ng/mL, with no unit written.

Tell us which Cmax value is on record for CC[C@H](C)[C@@H]1NC(=O)[C@H](Cc2ccc(OC)cc2)NC(=O)CCCSC[C@@H](C(=O)N2CCC[C@H]2C(=O)N[C@@H](CC(C)C)C(=O)NCC(N)=O)NC(=O)[C@H](CC(N)=O)NC(=O)[C@H](CCC(N)=O)NC1=O [carbetocin] (Y(Me)IQNCPLG-NH2; linker N-5 via X1 (inferred))
0.32

----------
# PROCEDURE DETAILS: in vivo
# RUN CONDITIONS: rabbit, inhaled or intranasal, 60 ug
*1 amine or outer side, *2 acyl side, *3 side chain or, on linkers, in order; H or OH if unused. Where a SMILES comes first, the peptide text is derived from it. Bridges are numbered along the chain shown (N, C = ends). X1 = O=C(CCC[*:2])[*:1]
PARAMETER: F rel

Hello, please tell me recorded F rel for this one: CC[C@H](C)[C@@H]1NC(=O)[C@H](Cc2ccc(OC)cc2)NC(=O)CCCSC[C@@H](C(=O)N2CCC[C@H]2C(=O)N[C@@H](CC(C)C)C(=O)NCC(N)=O)NC(=O)[C@H](CC(N)=O)NC(=O)[C@H](CCC(N)=O)NC1=O [carbetocin] (Y(Me)IQNCPLG-NH2; linker N-5 via X1 (inferred))
~9%
